- Test system: LoVo
- ASSAY: SRB colorimetric assay of cell growth and viability, LoVo
- Type: cell-based, human
- COND: 48 hours exposure
REPORTED ENDPOINT: GI50 (µM)
Give a bare numeral; the unit µM is implied.

(Q) Identify measured GI50 corresponding to C/C=C1\NC(=O)[C@H](Cc2ccccc2)NC(=O)[C@@H](C(C)C)NC(=O)[C@@H]([C@@H](C)CC)NC(=O)[C@H](NC(=O)[C@H](NC(=O)[C@H](CCCN)NC(=O)[C@H]2CCCN2C(=O)[C@H](NC(=O)[C@@H](NC(=O)[C@@H](NC(=O)[C@H](NC(=O)C(F)(F)C(F)(F)C(F)(F)C(F)(F)C(F)(F)C(F)(F)F)C(C)C)[C@@H](C)O)C(C)C)C(C)C)[C@@H](C)CC)[C@@H](C)OC(=O)[C@H](C(C)C)NC1=O [Compound 26, [Pfh^14]-KF]
(A) 0.654

----------
- Tested on: SK-BR-3
- ASSAY: SRB colorimetric assay of cell growth and viability, SK-BR-3
- Type: cell-based, human
- COND: 48 hours exposure
REPORTED ENDPOINT: LC50 (µM)
The figure you give is taken to be in µM; do not add the unit.

(Q) Supply LC50 value. Item: C/C=C1\NC(=O)[C@H](Cc2ccccc2)NC(=O)[C@@H](C(C)C)NC(=O)[C@@H]([C@@H](C)CC)NC(=O)[C@H](NC(=O)[C@H](NC(=O)[C@H](CCCN)NC(=O)[C@H]2CCCN2C(=O)[C@H](NC(=O)[C@@H](NC(=O)[C@@H](NC(=O)[C@@H](CC2CCCCC2)NC(=O)CCCC(C)C)[C@@H](C)O)C(C)C)C(C)C)[C@@H](C)CC)[C@@H](C)OC(=O)[C@H](C(C)C)NC1=O [Compound 8, [D-Cha^13]-KF]
(A) 3.17

----------
- System: LoVo-Dox
- ASSAY: SRB colorimetric assay of cell growth and viability, LoVo-Dox
- Format: cell-based, human
- COND: 48 hours exposure; read-out: LC50 LOVO-DOX
Where a SMILES comes first, the peptide text is derived from it. Bridges are numbered along the chain shown (N, C = ends). [ ]: non-standard residue; d: D form. The star is where a group is joined. d(aIle) = CC[C@H](C)[C@@H](N)C(=O)O; d(aThr) = C[C@@H](O)[C@@H](N)C(=O)O; Hexanoyl(5-Me) = CC(C)CCCC(=O)*; Orn = NCCC[C@H](N)C(=O)O; Dhb = C/C=C(\N)C(=O)O
REPORTED ENDPOINT: CC50 (µM)
Give just the number in µM; leave the unit off.

The following compounds have reported results that may help.
C/C=C1\NC(=O)[C@H](Cc2ccccc2)NC(=O)[C@@H](C(C)C)NC(=O)[C@@H]([C@@H](C)CC)NC(=O)[C@H](NC(=O)[C@H](NC(=O)[C@H](CCCN)NC(=O)[C@H]2CCCN2C(=O)[C@H](NC(=O)[C@@H](NC(=O)[C@@H](NC(=O)[C@@H](Cc2ccccc2)NC(=O)CCCC(C)C)[C@@H](C)O)C(C)C)C(C)C)[C@@H](C)CC)[C@@H](C)OC(=O)[C@H](C(C)C)NC1=O [Compound 36, [D-Phe^13]-KF]: 2.15
C/C=C1\NC(=O)[C@H](Cc2ccccc2)NC(=O)[C@@H](C(C)C)NC(=O)[C@@H]([C@@H](C)CC)NC(=O)[C@H](NC(=O)[C@H](NC(=O)[C@H](CCCN)NC(=O)[C@H]2CCCN2C(=O)[C@H](NC(=O)[C@@H](NC(=O)[C@H](CC(C)C)NC(=O)CCCC(C)C)C(C)C)C(C)C)[C@@H](C)CC)[C@@H](C)OC(=O)[C@H](C(C)C)NC1=O [Compound 54, [Leu^12, noD-Val^13]-KF] ({Hexanoyl(5-Me)}-LV[dV][dP][Orn][d(aIle)][d(aThr)][d(aIle)][dV]F[Dhb]V; ester 7-C): 5.37
C/C=C1\NC(=O)[C@H](Cc2ccccc2)NC(=O)[C@@H](C(C)C)NC(=O)[C@@H]([C@@H](C)CC)NC(=O)[C@H](NC(=O)[C@H](NC(=O)[C@H](CCCN)NC(=O)[C@H]2CCCN2C(=O)[C@H](NC(=O)[C@@H](NC(=O)[C@H](C)NC(=O)CCCC(C)C)C(C)C)C(C)C)[C@@H](C)CC)[C@@H](C)OC(=O)[C@H](C(C)C)NC1=O [Compound 52, [Ala^12, noD-Val^13]-KF] ({Hexanoyl(5-Me)}-AV[dV][dP][Orn][d(aIle)][d(aThr)][d(aIle)][dV]F[Dhb]V; ester 7-C): 7.41

Turning now to a further compound:
(Q) Note CC50 for the compound shown: C/C=C1\NC(=O)[C@H](Cc2ccccc2)NC(=O)[C@@H](C(C)C)NC(=O)[C@@H]([C@@H](C)CC)NC(=O)[C@H](NC(=O)[C@H](NC(=O)[C@H](CCCCN)NC(=O)[C@H]2CCCN2C(=O)[C@H](NC(=O)[C@@H](NC(=O)[C@@H](NC(=O)[C@H](NC(=O)CC[C@@H](C)CC)C(C)C)[C@@H](C)O)C(C)C)C(C)C)[C@@H](C)CC)[C@@H](C)OC(=O)[C@H](C(C)C)NC1=O [Compound 30, [Lys^8, (4S)-MeHex^14]-KF]
(A) 0.639
